viability, T/C values by entry
Test system: K24384-001-R-PDC complex spheroid growth
Test: Anticancer human tumor K24384-001-R-PDC patient-derived pancreatic adenocarcinoma cell line growth inhibition [AhR]
Conditions: second compound 3.16 µM; first compound 1 µM; hits give low values
Reply with just the number (in %).

| Compound | Unit abbreviation | viability, T/C |
| --- | --- | --- |
| NS(=O)(=O)OCC1CC(n2ccc3c(NC4CCc5ccccc54)ncnc32)CC1O (stereo not drawn) + Cc1cncc(-c2nc(NCCc3c[nH]c4ccccc34)c3ncn(C(C)C)c3n2)c1 | % | 86.4 |
| Nc1ccn(C2OC(CO)C(O)C2(F)F)c(=O)n1 (stereo not drawn) + Cc1cncc(-c2nc(NCCc3c[nH]c4ccccc34)c3ncn(C(C)C)c3n2)c1 | % | 70.1 |

Exam item: Specify the recorded viability, T/C for Nc1ccccc1NC(=O)c1ccc(CNC(=O)OCc2cccnc2)cc1 + CC(CO)NC(=O)c1cc(-c2ccc(Cl)cc2)nn(-c2cnn(C)c2)c1=O , system: K24384-001-R-PDC complex spheroid growth.
Marked response: 44.6

* * *

viability, T/C values by entry
System: K24384-001-R-PDC complex spheroid growth
Assay: Anticancer human tumor K24384-001-R-PDC cell line growth inhibition [AhR];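 also: percent of DMSO vehicle-treated spheroid viability set as 100%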
Details: second compound 0.1 µM; first compound 0.03 µM; hits give low values
Description: Multicellular complex tumor spheroid response to aryl hydrocarbon receptor antagonists in combination with a variety of drugs and investigational agents in selected tumor cell lines […] Compounds. […] If the clinical Cmax for an agent had not been determined, the highest concentration tested was 10 microM (Table 1). […]
Reply with just the number (in %).

Use the examples below as a reference point.
| Compound | Target under test | Observed result |
| --- | --- | --- |
| O=C(C=Cn1cnc(-c2cc(C(F)(F)F)cc(C(F)(F)F)c2)n1)NNc1cnccn1 + Cc1ccccc1N=Nc1ccc(NC(=O)c2ccnn2C)c(C)c1 | K24384-001-R-PDC complex spheroid growth | 104 |
| CCN(c1cc(-c2ccc(CN3CCOCC3)cc2)cc(C(=O)NCc2c(C)cc(C)[nH]c2=O)c1C)C1CCOCC1 + Cc1ccccc1N=Nc1ccc(NC(=O)c2ccnn2C)c(C)c1 | K24384-001-R-PDC complex spheroid growth | 114 |
| CC(C)CC(NC(=O)C(Cc1ccccc1)NC(=O)c1cnccn1)B(O)O (stereo not given) + Cc1ccccc1N=Nc1ccc(NC(=O)c2ccnn2C)c(C)c1 | K24384-001-R-PDC complex spheroid growth | 1.13 |
| CCN(c1cc(-c2ccc(CN3CCOCC3)cc2)cc(C(=O)NCc2c(C)cc(C)[nH]c2=O)c1C)C1CCOCC1 + Cc1cncc(-c2nc(NCCc3c[nH]c4ccccc34)c3ncn(C(C)C)c3n2)c1 | K24384-001-R-PDC complex spheroid growth | 126 |

Please turn your attention to the following entry.
Exam item: Could you please provide reported viability, T/C for CCc1c2c(nc3ccc(O)cc13)-c1cc3c(c(=O)n1C2)COC(=O)[C@]3(O)CC + Cc1cncc(-c2nc(NCCc3c[nH]c4ccccc34)c3ncn(C(C)C)c3n2)c1 ? Thanks!
Marked response: 34.9

* * *

Test system: K24384-001-R-PDC complex spheroid growth
Assay: Anticancer human tumor K24384-001-R-PDC cell line growth inhibition [AhR];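 also: percent of DMSO vehicle-treated spheroid viability set as 100%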
Conditions: second compound 1 µM; first compound 1 µM; hits give low values
Readout: viability, T/C (%)
Reply with just the number (in %).

Use the examples below as a reference point.
| Molecule | Observed result |
| --- | --- |
| Nc1ccccc1NC(=O)c1ccc(CNC(=O)OCc2cccnc2)cc1 + Cc1cncc(-c2nc(NCCc3c[nH]c4ccccc34)c3ncn(C(C)C)c3n2)c1 | 56.6 |
| COc1cccc2c1C(=O)c1c(O)c3c(c(O)c1C2=O)CC(O)(C(=O)CO)CC3OC1CC(N)C(O)C(C)O1 (stereo not drawn) + Cc1ccccc1N=Nc1ccc(NC(=O)c2ccnn2C)c(C)c1 | 7.59 |

Please turn your attention to the following entry.
Exam item: Specify the recorded viability, T/C for NS(=O)(=O)OCC1CC(n2ccc3c(NC4CCc5ccccc54)ncnc32)CC1O (stereo not drawn) + Cc1cncc(-c2nc(NCCc3c[nH]c4ccccc34)c3ncn(C(C)C)c3n2)c1 , system: K24384-001-R-PDC complex spheroid growth.
Marked response: 84.6

* * *

Tested on: K24384-001-R-PDC complex spheroid growth
Assay: Anticancer human tumor K24384-001-R-PDC cell line growth inhibition [AhR];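 also: percent of DMSO vehicle-treated spheroid viability set as 100%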
Settings: second compound 0.1 µM; first compound 3 µM; hits give low values
Threshold 90%. viability, T/C below it: Condition met. viability, T/C at it or above: Condition not met.

| Compound | Cat |
| --- | --- |
| CCN(c1cc(-c2ccc(CN3CCOCC3)cc2)cc(C(=O)NCc2c(C)cc(C)[nH]c2=O)c1C)C1CCOCC1 + Cc1ccccc1N=Nc1ccc(NC(=O)c2ccnn2C)c(C)c1 | Condition not met |
| O=C(C=Cn1cnc(-c2cc(C(F)(F)F)cc(C(F)(F)F)c2)n1)NNc1cnccn1 + CC(CO)NC(=O)c1cc(-c2ccc(Cl)cc2)nn(-c2cnn(C)c2)c1=O | Condition met |
| O=C(C=Cn1cnc(-c2cc(C(F)(F)F)cc(C(F)(F)F)c2)n1)NNc1cnccn1 + Cc1ccccc1N=Nc1ccc(NC(=O)c2ccnn2C)c(C)c1 | Condition met |
| CCN(c1cc(-c2ccc(CN3CCOCC3)cc2)cc(C(=O)NCc2c(C)cc(C)[nH]c2=O)c1C)C1CCOCC1 + Cc1cncc(-c2nc(NCCc3c[nH]c4ccccc34)c3ncn(C(C)C)c3n2)c1 | Condition not met |

Consider the record given below.
Exam item: Please state whether viability, T/C is below 90% for O=C(C=Cn1cnc(-c2cc(C(F)(F)F)cc(C(F)(F)F)c2)n1)NNc1cnccn1 + Cc1cncc(-c2nc(NCCc3c[nH]c4ccccc34)c3ncn(C(C)C)c3n2)c1
Marked response: Condition met

* * *

viability, T/C values by entry
Test system: K24384-001-R-PDC complex spheroid growth
Assay: Anticancer human tumor K24384-001-R-PDC cell line growth inhibition [AhR];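 also: percent of DMSO vehicle-treated spheroid viability set as 100%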
Conditions: second compound 10 µM; first compound 3.16 µM; hits give low values
Reply with just the number (in %).

Exam item: Could you please provide reported viability, T/C for O=C(c1cc(Cc2n[nH]c(=O)c3ccccc23)ccc1F)N1CCN(C(=O)C2CC2)CC1 + Cc1ccccc1N=Nc1ccc(NC(=O)c2ccnn2C)c(C)c1 ? Thanks!
Marked response: 65.2

Exam item: Could you please provide reported viability, T/C for Nc1ccn(C2OC(CO)C(O)C2(F)F)c(=O)n1 (stereo unspecified) + Cc1cncc(-c2nc(NCCc3c[nH]c4ccccc34)c3ncn(C(C)C)c3n2)c1 ? Thanks!
Marked response: 10.4

Exam item: Could you please provide reported viability, T/C for CC(C)c1c(-c2ccccc2)nc2c(C#N)c[nH]n2c1=O + CC(CO)NC(=O)c1cc(-c2ccc(Cl)cc2)nn(-c2cnn(C)c2)c1=O ? Thanks!
Marked response: 52.3

Exam item: Could you please provide reported viability, T/C for NS(=O)(=O)OCC1CC(n2ccc3c(NC4CCc5ccccc54)ncnc32)CC1O (stereo unspecified) + CC(CO)NC(=O)c1cc(-c2ccc(Cl)cc2)nn(-c2cnn(C)c2)c1=O ? Thanks!
Marked response: 29.6

Exam item: Could you please provide reported viability, T/C for NS(=O)(=O)OCC1CC(n2ccc3c(NC4CCc5ccccc54)ncnc32)CC1O (stereo unspecified) + Cc1ccccc1N=Nc1ccc(NC(=O)c2ccnn2C)c(C)c1 ? Thanks!
Marked response: 23.4

Exam item: Could you please provide reported viability, T/C for CC1(C)CCC(CN2CCN(c3ccc(C(=O)NS(=O)(=O)c4ccc(NCC5CCOCC5)c([N+](=O)[O-])c4)c(Oc4cnc5[nH]ccc5c4)c3)CC2)=C(c2ccc(Cl)cc2)C1 + Cc1ccccc1N=Nc1ccc(NC(=O)c2ccnn2C)c(C)c1 ? Thanks!
Marked response: 111

* * *

viability, T/C values by entry
Test system: K24384-001-R-PDC complex spheroid growth
Assay: Anticancer human tumor K24384-001-R-PDC cell line growth inhibition [AhR];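 also: percent of DMSO vehicle-treated spheroid viability set as 100%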
Details: second compound 0.316 µM; first compound 0.00316 µM; hits give low values
Reply with just the number (in %).

Use the examples below as a reference point.
| Molecule | Target under test | viability, T/C / % |
| --- | --- | --- |
| CC1COCCN1c1cc(-c2ccnn2C)c2ccnc(-c3ccn[nH]3)c2n1 (configuration not stated) + Cc1ccccc1N=Nc1ccc(NC(=O)c2ccnn2C)c(C)c1 | K24384-001-R-PDC complex spheroid growth | 114 |
| Nc1ncn(C2CC(O)C(CO)O2)c(=O)n1 (configuration not stated) + CC(CO)NC(=O)c1cc(-c2ccc(Cl)cc2)nn(-c2cnn(C)c2)c1=O | K24384-001-R-PDC complex spheroid growth | 105 |
| Nc1ncn(C2CC(O)C(CO)O2)c(=O)n1 (configuration not stated) + Cc1cncc(-c2nc(NCCc3c[nH]c4ccccc34)c3ncn(C(C)C)c3n2)c1 | K24384-001-R-PDC complex spheroid growth | 91.1 |
| Cn1ncnc1C1c2n[nH]c(=O)c3cc(F)cc(c23)NC1c1ccc(F)cc1 (configuration not stated) + Cc1ccccc1N=Nc1ccc(NC(=O)c2ccnn2C)c(C)c1 | K24384-001-R-PDC complex spheroid growth | 75.8 |
| CC1COCCN1c1cc(-c2ccnn2C)c2ccnc(-c3ccn[nH]3)c2n1 (configuration not stated) + CC(CO)NC(=O)c1cc(-c2ccc(Cl)cc2)nn(-c2cnn(C)c2)c1=O | K24384-001-R-PDC complex spheroid growth | 111 |
| CC1COCCN1c1cc(-c2ccnn2C)c2ccnc(-c3ccn[nH]3)c2n1 (configuration not stated) + Cc1cncc(-c2nc(NCCc3c[nH]c4ccccc34)c3ncn(C(C)C)c3n2)c1 | K24384-001-R-PDC complex spheroid growth | 95.6 |
| Nc1ncn(C2CC(O)C(CO)O2)c(=O)n1 (configuration not stated) + Cc1ccccc1N=Nc1ccc(NC(=O)c2ccnn2C)c(C)c1 | K24384-001-R-PDC complex spheroid growth | 102 |
| Cn1ncnc1C1c2n[nH]c(=O)c3cc(F)cc(c23)NC1c1ccc(F)cc1 (configuration not stated) + Cc1cncc(-c2nc(NCCc3c[nH]c4ccccc34)c3ncn(C(C)C)c3n2)c1 | K24384-001-R-PDC complex spheroid growth | 104 |

Exam item: Could you please provide reported viability, T/C for Cn1ncnc1C1c2n[nH]c(=O)c3cc(F)cc(c23)NC1c1ccc(F)cc1 (configuration not stated) + CC(CO)NC(=O)c1cc(-c2ccc(Cl)cc2)nn(-c2cnn(C)c2)c1=O ? Thanks!
Marked response: 90.4

Exam item: Could you please provide reported viability, T/C for CC[C@@]1(O)C(=O)OCc2c1cc1n(c2=O)Cc2cc3c(CN(C)C)c(O)ccc3nc2-1 + CC(CO)NC(=O)c1cc(-c2ccc(Cl)cc2)nn(-c2cnn(C)c2)c1=O ? Thanks!
Marked response: 99

Exam item: Could you please provide reported viability, T/C for CC[C@@]1(O)C(=O)OCc2c1cc1n(c2=O)Cc2cc3c(CN(C)C)c(O)ccc3nc2-1 + Cc1cncc(-c2nc(NCCc3c[nH]c4ccccc34)c3ncn(C(C)C)c3n2)c1 ? Thanks!
Marked response: 87.9

Exam item: Could you please provide reported viability, T/C for CC[C@@]1(O)C(=O)OCc2c1cc1n(c2=O)Cc2cc3c(CN(C)C)c(O)ccc3nc2-1 + Cc1ccccc1N=Nc1ccc(NC(=O)c2ccnn2C)c(C)c1 ? Thanks!
Marked response: 98.6
